Provenance of the data: ChEMBL document CHEMBL1157691

tested on: MCF7; test: Antiproliferative activity against human MCF7 cells assessed as cell survival at 4 ug/mL after 72 hrs by MTS assay relative to control; type: functional; conditions: MCF7, 72 h, read-out: Survival
readout-name: viability at 4 µg/mL (%)
Give a bare numeral; the unit % is implied.

Given the compound Oc1cccc2ccc(/C=C/c3cccnc3)nc12 and test system MCF7, the measured viability at 4 µg/mL is 115

Given the compound CO/N=C(/C)c1ccc(Nc2cc(/C=C/c3ccccc3)nc3c(OC)cccc23)cc1 and test system MCF7, the measured viability at 4 µg/mL is 97

Given the compound CO/N=C(/C)c1ccc(Nc2cc(/C=C/c3ccccc3)nc3ccccc23)cc1 and test system MCF7, the measured viability at 4 µg/mL is 108

Given the compound Clc1cc(/C=C/c2ccccc2)nc2ccccc12 and test system MCF7, the measured viability at 4 µg/mL is 120

Given the compound Oc1cccc2ccc(/C=C/c3ccco3)nc12 and test system MCF7, the measured viability at 4 µg/mL is 110

Given the compound COc1cccc2c(Nc3ccc(/C(C)=N\O)cc3)cc(/C=C/c3ccccc3)nc12 and test system MCF7, the measured viability at 4 µg/mL is 40

Given the compound COc1cccc2c(Nc3ccc(C(C)=O)cc3)cc(/C=C/c3ccccc3)nc12 and test system MCF7, the measured viability at 4 µg/mL is 95

Given the compound COc1cccc2c(O)cc(/C=C/c3ccccc3)nc12 and test system MCF7, the measured viability at 4 µg/mL is 104

Given the compound CC(=O)c1ccc(Nc2cc(/C=C/c3ccccc3)nc3ccccc23)cc1 and test system MCF7, the measured viability at 4 µg/mL is 83

Given the compound C/C(=N/O)c1ccc(Nc2cc(/C=C/c3ccccc3)nc3ccccc23)cc1 and test system MCF7, the measured viability at 4 µg/mL is 54

Given the compound N#Cc1ccc(/C=C/c2ccc3cccc(O)c3n2)cc1 and test system MCF7, the measured viability at 4 µg/mL is 107

Given the compound Oc1cccc(/C=C/c2ccc3cccc(O)c3n2)c1O and test system MCF7, the measured viability at 4 µg/mL is 95

Given the compound O=[N+]([O-])c1ccc(/C=C/c2ccc3cccc(O)c3n2)cc1 and test system MCF7, the measured viability at 4 µg/mL is 89

Given the compound Oc1cccc2ccc(/C=C/c3ccc(F)cc3)nc12 and test system MCF7, the measured viability at 4 µg/mL is 103

Given the compound Oc1ccc(/C=C/c2ccc3cccc(O)c3n2)cc1 and test system MCF7, the measured viability at 4 µg/mL is 108

Given the compound COc1cccc2c(Cl)cc(/C=C/c3ccccc3)nc12 and test system MCF7, the measured viability at 4 µg/mL is 99

Given the compound Oc1cccc2ccc(/C=C/c3ccccc3)nc12 and test system MCF7, the measured viability at 4 µg/mL is 110

Given the compound Oc1cc(/C=C/c2ccccc2)nc2ccccc12 and test system MCF7, the measured viability at 4 µg/mL is 119

====

Let's look at some molecules and their measured viability at 4 µg/mL.
system: SF-268; assay: Antiproliferative activity against human SF268 cells assessed as cell survival at 4 ug/mL after 72 hrs by MTS assay relative to control; format: functional; settings: SF-268, 72 h, read-out: Survival
Give a bare numeral; the unit % is implied.

Reference set, count: 5
smiles-code: CC(=O)c1ccc(Nc2cc(/C=C/c3ccccc3)nc3ccccc23)cc1
system: SF-268
viability at 4 µg/mL (%): 107
--
smiles-code: Oc1cc(/C=C/c2ccccc2)nc2ccccc12
system: SF-268
viability at 4 µg/mL (%): 120
--
smiles-code: Clc1cc(/C=C/c2ccccc2)nc2ccccc12
system: SF-268
viability at 4 µg/mL (%): 118
--
smiles-code: CO/N=C(/C)c1ccc(Nc2cc(/C=C/c3ccccc3)nc3c(OC)cccc23)cc1
system: SF-268
viability at 4 µg/mL (%): 97
--
smiles-code: Oc1cccc2ccc(/C=C/c3ccc(F)cc3)nc12
system: SF-268
viability at 4 µg/mL (%): 82

Given the molecule Oc1ccc(/C=C/c2ccc3cccc(O)c3n2)cc1 and test system SF-268, the measured viability at 4 µg/mL is 78

Given the molecule O=[N+]([O-])c1ccc(/C=C/c2ccc3cccc(O)c3n2)cc1 and test system SF-268, the measured viability at 4 µg/mL is 77

====

tested on: SF-268; assay: Antiproliferative activity against human SF268 cells assessed as cell survival at 4 ug/mL after 72 hrs by MTS assay relative to control; type: functional; conditions: SF-268, 72 h, read-out: Survival
Let's look at some compounds and their measured viability at 4 µg/mL.
Give a bare numeral; the unit % is implied.

smiles-code: N#Cc1ccc(/C=C/c2ccc3cccc(O)c3n2)cc1
viability at 4 µg/mL (%): 90
--
smiles-code: COc1cccc2c(Cl)cc(/C=C/c3ccccc3)nc12
viability at 4 µg/mL (%): 81
--
smiles-code: Oc1cccc2ccc(/C=C/c3cccnc3)nc12
viability at 4 µg/mL (%): 89

Recorded result, COc1cccc2c(Nc3ccc(C(C)=O)cc3)cc(/C=C/c3ccccc3)nc12 , viability at 4 µg/mL: 114

====

test system: MCF7; assay: Antiproliferative activity against human MCF7 cells assessed as cell survival at 4 ug/mL after 72 hrs by MTS assay relative to control; type: functional; conditions: MCF7, 72 h, read-out: Survival
readout-name: viability at 4 µg/mL

Reference set, count: 2
smiles-code: CC(=O)c1ccc(Nc2cc(/C=C/c3ccc([N+](=O)[O-])o3)nc3ccccc23)cc1
system: MCF7
result: < 20%
//
smiles-code: CO/N=C(\C)c1ccc(Nc2cc(/C=C/c3ccc([N+](=O)[O-])o3)nc3ccccc23)cc1
system: MCF7
result: < 20%

Kindly consider the entry below.
Recorded result, C/C(=N\O)c1ccc(Nc2cc(/C=C/c3ccc([N+](=O)[O-])o3)nc3ccccc23)cc1 , viability at 4 µg/mL: < 20%

====

Let's look at some compounds and their measured viability at 4 µg/mL.
tested on: SF-268; test: Antiproliferative activity against human SF268 cells assessed as cell survival at 4 ug/mL after 72 hrs by MTS assay relative to control; format: functional; details: SF-268, 72 h, read-out: Survival

smiles-code: CO/N=C(\C)c1ccc(Nc2cc(/C=C/c3ccc([N+](=O)[O-])o3)nc3ccccc23)cc1
readout-name: viability at 4 µg/mL
result: < 20%
//
smiles-code: CC(=O)c1ccc(Nc2cc(/C=C/c3ccc([N+](=O)[O-])o3)nc3ccccc23)cc1
readout-name: viability at 4 µg/mL
result: < 20%

Recorded result, C/C(=N\O)c1ccc(Nc2cc(/C=C/c3ccc([N+](=O)[O-])o3)nc3ccccc23)cc1 , viability at 4 µg/mL: < 20%

====

tested on: SF-268; experiment: Antiproliferative activity against human SF268 cells assessed as cell survival at 4 ug/mL after 72 hrs by MTS assay relative to control; type: functional; settings: SF-268, 72 h, read-out: Survival
Let's look at some compounds and their measured viability at 4 µg/mL.
Give a bare numeral; the unit % is implied.

Reference set, count: 5
smiles-code: COc1cccc2c(Nc3ccc(/C(C)=N\O)cc3)cc(/C=C/c3ccccc3)nc12
units: %
number: 63
//
smiles-code: COc1cccc2c(O)cc(/C=C/c3ccccc3)nc12
units: %
number: 119
//
smiles-code: Oc1cccc2ccc(/C=C/c3ccccc3)nc12
units: %
number: 72
//
smiles-code: Oc1cccc2ccc(/C=C/c3ccco3)nc12
units: %
number: 76
//
smiles-code: C/C(=N/O)c1ccc(Nc2cc(/C=C/c3ccccc3)nc3ccccc23)cc1
units: %
number: 90

Recorded result, Oc1cccc(/C=C/c2ccc3cccc(O)c3n2)c1O , viability at 4 µg/mL: 52

Recorded result, CO/N=C(/C)c1ccc(Nc2cc(/C=C/c3ccccc3)nc3ccccc23)cc1 , viability at 4 µg/mL: 112
